# STUDY TARGET: native human MET on living cells (human, UniProt P08581 25-1390)
# Sequence (P08581 25-1390): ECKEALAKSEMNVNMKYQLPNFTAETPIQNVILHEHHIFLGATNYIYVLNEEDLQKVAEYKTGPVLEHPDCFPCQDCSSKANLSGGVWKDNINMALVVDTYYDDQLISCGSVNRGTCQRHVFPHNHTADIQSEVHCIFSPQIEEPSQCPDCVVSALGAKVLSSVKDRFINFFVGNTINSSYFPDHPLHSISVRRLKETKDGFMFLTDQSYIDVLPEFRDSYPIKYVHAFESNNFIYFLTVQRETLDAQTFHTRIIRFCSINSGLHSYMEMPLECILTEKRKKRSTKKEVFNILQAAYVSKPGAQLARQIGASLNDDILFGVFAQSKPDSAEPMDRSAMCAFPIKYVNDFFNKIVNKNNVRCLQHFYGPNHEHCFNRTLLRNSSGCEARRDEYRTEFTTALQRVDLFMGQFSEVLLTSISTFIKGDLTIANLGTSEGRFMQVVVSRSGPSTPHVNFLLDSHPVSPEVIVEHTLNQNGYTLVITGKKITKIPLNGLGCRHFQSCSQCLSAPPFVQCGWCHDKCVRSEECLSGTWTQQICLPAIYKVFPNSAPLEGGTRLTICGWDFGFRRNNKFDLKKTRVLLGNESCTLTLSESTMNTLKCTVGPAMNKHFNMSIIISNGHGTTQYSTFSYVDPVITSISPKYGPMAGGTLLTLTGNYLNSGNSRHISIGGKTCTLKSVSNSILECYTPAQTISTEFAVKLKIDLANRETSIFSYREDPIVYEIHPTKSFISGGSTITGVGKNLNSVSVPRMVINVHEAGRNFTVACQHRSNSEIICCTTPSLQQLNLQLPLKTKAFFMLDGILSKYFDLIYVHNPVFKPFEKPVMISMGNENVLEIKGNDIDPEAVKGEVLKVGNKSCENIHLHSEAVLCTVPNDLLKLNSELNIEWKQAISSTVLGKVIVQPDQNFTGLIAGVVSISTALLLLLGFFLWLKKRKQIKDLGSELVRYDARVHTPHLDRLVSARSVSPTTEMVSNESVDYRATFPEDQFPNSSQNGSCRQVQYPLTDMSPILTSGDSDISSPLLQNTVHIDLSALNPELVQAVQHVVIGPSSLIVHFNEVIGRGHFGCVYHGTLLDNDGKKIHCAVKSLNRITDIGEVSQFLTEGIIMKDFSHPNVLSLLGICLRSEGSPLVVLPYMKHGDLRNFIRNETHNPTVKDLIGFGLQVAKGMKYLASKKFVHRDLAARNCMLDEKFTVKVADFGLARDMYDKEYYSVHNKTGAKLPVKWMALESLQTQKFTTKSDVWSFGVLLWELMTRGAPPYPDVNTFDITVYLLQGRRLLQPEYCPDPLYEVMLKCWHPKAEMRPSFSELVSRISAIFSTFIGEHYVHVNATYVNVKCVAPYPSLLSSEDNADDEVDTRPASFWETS
# ASSAY SUMMARY: cell-based or functional assay
PROPERTY: scatter score 0-4, HPAF-II, 9.000 nM (score)
Answers are plain numbers, in score.

Inquiry: Entry 71C3 chimeric llama-human IgG1 mAb (antibody, V domains shown, llama VH on human IgG1 CH1-CH2-CH3, llama VL on human lambda CL) VH: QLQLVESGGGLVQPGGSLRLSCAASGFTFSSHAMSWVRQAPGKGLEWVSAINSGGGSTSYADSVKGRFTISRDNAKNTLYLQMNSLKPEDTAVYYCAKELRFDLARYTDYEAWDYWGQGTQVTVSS VL: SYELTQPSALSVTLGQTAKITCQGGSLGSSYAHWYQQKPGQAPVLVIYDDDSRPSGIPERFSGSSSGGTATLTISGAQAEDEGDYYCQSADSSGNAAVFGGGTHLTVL has what scatter score 0-4, HPAF-II, 9.000 nM?
Reply text: 4
